- TARGET_UNDER_TEST: Peroxisome proliferator-activated receptor delta (Homo sapiens, UniProt Q03181)
- ASSAY_NOTES: Binding affinity to human PPAR delta
- ASSAY_CONDITIONS: read-out: IC50
pIC50: −log10 of the molar value.
# pIC50 annotations
MEASURE: pIC50

MOLECULE: CCC(Cc1ccc(OCCCOc2ccc(Oc3ccc(F)cc3)cc2Cl)cc1)C(=O)O (stereo not given)
MEASURE: pIC50
OBS_VALUE: 5.93

MOLECULE: O=C(O)C(Cc1ccc(OCCCOc2ccc(Oc3ccc(F)cc3)cc2Cl)cc1)c1ccccc1 (stereo not given)
MEASURE: pIC50
OBS_VALUE: 5.87

MOLECULE: CC[C@@](C)(Cc1ccc(OCCCOc2ccc3c(C(F)(F)F)cc(=O)oc3c2C)cc1)C(=O)O
MEASURE: pIC50
OBS_VALUE: 6.87

MOLECULE: CC[C@@](C)(Oc1ccc(OCCCOc2ccc(Oc3ccc(F)cc3)cc2Cl)cc1)C(=O)O
MEASURE: pIC50
OBS_VALUE: 5.62

MOLECULE: CC(Cc1ccc(OCCCOc2ccc(Oc3ccc(F)cc3)cc2Cl)cc1)C(=O)O (stereo not given)
MEASURE: pIC50
OBS_VALUE: 5.39

----------
# IC50 annotations
- TARGET_UNDER_TEST: Peroxisome proliferator-activated receptor gamma (Homo sapiens)
- ASSAY_CONDITIONS: read-out: IC50
- Description: Binding affinity to human PPAR gamma

MOLECULE: CC[C@@](C)(Cc1ccc(OCCCOc2ccc(CC(F)(F)F)cc2Cl)cc1)C(=O)O
CENSORING_QUALIFIER: >
IC50 / nM: 6000
--
MOLECULE: CCC(C)(Oc1ccc(OCCCOc2ccc(Oc3ccc(F)cc3)cc2Cl)cc1)C(=O)O (configuration not stated)
CENSORING_QUALIFIER: =
IC50 / nM: 1240

----------
- TARGET_UNDER_TEST: Peroxisome proliferator-activated receptor delta (Homo sapiens, UniProt Q03181)
- Sequence (Q03181 whole entry): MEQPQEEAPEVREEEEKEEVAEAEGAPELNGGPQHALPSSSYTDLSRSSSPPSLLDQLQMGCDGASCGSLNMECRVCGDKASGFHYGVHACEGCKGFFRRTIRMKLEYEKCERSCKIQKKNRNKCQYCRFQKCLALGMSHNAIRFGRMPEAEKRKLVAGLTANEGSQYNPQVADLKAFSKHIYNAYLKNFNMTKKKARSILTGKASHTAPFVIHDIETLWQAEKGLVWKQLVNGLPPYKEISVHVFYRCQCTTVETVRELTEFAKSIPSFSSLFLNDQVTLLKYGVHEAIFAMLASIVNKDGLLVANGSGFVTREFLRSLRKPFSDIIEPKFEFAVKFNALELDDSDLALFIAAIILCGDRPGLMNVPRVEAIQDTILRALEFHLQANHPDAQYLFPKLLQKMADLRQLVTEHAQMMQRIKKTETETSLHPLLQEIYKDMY
- ASSAY_NOTES: Transactivation by human PPAR delta in COS1 cells
- Type: functional, cell-based, COS-1
- ASSAY_CONDITIONS: read-out: EC50
pEC50: −log10 of the molar value.

COMPOUND_STRING: CC(C)(Oc1ccc(OCCCOc2ccc(Oc3ccc(F)cc3)cc2Cl)cc1)C(=O)O
CENSORING_QUALIFIER: <
pEC50: 5.52
--
COMPOUND_STRING: CCCc1cc(Oc2ccc(F)cc2)ccc1OCCCOc1ccc(OC(C)(C)C(=O)O)cc1
CENSORING_QUALIFIER: =
pEC50: 7.26
--
COMPOUND_STRING: CC(C)(Oc1ccc(OCCCCOc2ccc(Oc3ccc(F)cc3)cc2Cl)cc1)C(=O)O
CENSORING_QUALIFIER: =
pEC50: 6.55

----------
- TARGET_UNDER_TEST: Peroxisome proliferator-activated receptor delta (Homo sapiens, UniProt Q03181)
- Sequence (Q03181 whole entry): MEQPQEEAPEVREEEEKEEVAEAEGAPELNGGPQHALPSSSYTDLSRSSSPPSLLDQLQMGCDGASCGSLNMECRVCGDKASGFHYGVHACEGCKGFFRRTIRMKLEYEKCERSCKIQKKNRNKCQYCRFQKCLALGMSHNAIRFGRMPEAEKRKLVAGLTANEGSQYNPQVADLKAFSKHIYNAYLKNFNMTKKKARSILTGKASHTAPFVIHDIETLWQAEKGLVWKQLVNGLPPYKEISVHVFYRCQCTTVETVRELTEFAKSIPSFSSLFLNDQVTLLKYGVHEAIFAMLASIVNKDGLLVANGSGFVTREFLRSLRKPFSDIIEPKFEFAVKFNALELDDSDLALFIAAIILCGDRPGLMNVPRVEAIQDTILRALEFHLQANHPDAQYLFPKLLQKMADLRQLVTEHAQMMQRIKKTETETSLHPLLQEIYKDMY
- ASSAY_NOTES: Binding affinity to human PPAR delta
- ASSAY_CONDITIONS: read-out: IC50
MEASURE: IC50 (µM)

COMPOUND: O=C(O)CCc1ccc(OCCCOc2ccc(Oc3ccc(F)cc3)cc2Cl)cc1
MEASURE: IC50
CENSORING_QUALIFIER: >
OBS_VALUE: 0.05
//
COMPOUND: CC[C@@](C)(Cc1ccc(OCCCOc2ccccc2Cl)cc1)C(=O)O
MEASURE: IC50
CENSORING_QUALIFIER: =
OBS_VALUE: 4.63
//
COMPOUND: O=C(O)C(Cc1ccc(OCCCOc2ccc(Oc3ccc(F)cc3)cc2Cl)cc1)C1CCC1 (stereo not drawn)
MEASURE: IC50
CENSORING_QUALIFIER: =
OBS_VALUE: 1.35
//
COMPOUND: CCCC(Cc1ccc(OCCCOc2ccc(Oc3ccc(F)cc3)cc2Cl)cc1)C(=O)O (stereo not drawn)
MEASURE: IC50
CENSORING_QUALIFIER: =
OBS_VALUE: 1.13
//
COMPOUND: CC[C@@](C)(Oc1ccc(OCCCOc2ccc3c(C(F)(F)F)cc(=O)oc3c2Cl)cc1)C(=O)O
MEASURE: IC50
CENSORING_QUALIFIER: =
OBS_VALUE: 3.27
//
COMPOUND: CC[C@@](C)(Cc1ccc(OCCCOc2ccc(CC(F)(F)F)cc2Cl)cc1)C(=O)O
MEASURE: IC50
CENSORING_QUALIFIER: >
OBS_VALUE: 70
//
COMPOUND: CC[C@](C)(Oc1ccc(OCCCOc2ccc(Oc3ccc(F)cc3)cc2Cl)cc1)C(=O)O
MEASURE: IC50
CENSORING_QUALIFIER: =
OBS_VALUE: 1.09
//
COMPOUND: CC(C)(Oc1ccc(OCCCOc2ccc(Oc3ccc(F)cc3)cc2Cl)cc1)C(=O)O
MEASURE: IC50
CENSORING_QUALIFIER: =
OBS_VALUE: 2.39

----------
- TARGET_UNDER_TEST: Peroxisome proliferator-activated receptor gamma (Homo sapiens, UniProt P37231)
- Sequence (P37231 whole entry): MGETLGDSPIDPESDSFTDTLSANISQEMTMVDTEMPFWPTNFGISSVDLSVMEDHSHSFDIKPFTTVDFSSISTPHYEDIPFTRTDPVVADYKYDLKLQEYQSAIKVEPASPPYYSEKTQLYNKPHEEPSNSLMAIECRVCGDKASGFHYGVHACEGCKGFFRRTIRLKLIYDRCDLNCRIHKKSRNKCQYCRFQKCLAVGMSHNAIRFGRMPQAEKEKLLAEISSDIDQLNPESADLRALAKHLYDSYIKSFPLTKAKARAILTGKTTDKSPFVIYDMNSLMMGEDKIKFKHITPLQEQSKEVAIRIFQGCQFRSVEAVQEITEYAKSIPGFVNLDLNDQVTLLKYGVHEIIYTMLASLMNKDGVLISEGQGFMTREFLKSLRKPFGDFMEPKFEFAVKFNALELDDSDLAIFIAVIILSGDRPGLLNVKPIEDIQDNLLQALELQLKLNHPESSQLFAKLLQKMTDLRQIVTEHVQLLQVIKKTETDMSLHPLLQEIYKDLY
MEASURE: IC50

MOLECULE: O=C(O)C(Cc1ccc(OCCCOc2ccc(Oc3ccc(F)cc3)cc2Cl)cc1)C1CCC1 (stereo not drawn)
OBS_VALUE: Not Active

MOLECULE: CC[C@](C)(Oc1ccc(OCCCOc2ccc(Oc3ccc(F)cc3)cc2Cl)cc1)C(=O)O
OBS_VALUE: Not Active

MOLECULE: CCC(Cc1ccc(OCCCOc2ccc(Oc3ccc(F)cc3)cc2Cl)cc1)C(=O)O (stereo not drawn)
OBS_VALUE: Not Active

----------
- TARGET_UNDER_TEST: Peroxisome proliferator-activated receptor alpha (Homo sapiens)
- Sequence (Q07869 whole entry): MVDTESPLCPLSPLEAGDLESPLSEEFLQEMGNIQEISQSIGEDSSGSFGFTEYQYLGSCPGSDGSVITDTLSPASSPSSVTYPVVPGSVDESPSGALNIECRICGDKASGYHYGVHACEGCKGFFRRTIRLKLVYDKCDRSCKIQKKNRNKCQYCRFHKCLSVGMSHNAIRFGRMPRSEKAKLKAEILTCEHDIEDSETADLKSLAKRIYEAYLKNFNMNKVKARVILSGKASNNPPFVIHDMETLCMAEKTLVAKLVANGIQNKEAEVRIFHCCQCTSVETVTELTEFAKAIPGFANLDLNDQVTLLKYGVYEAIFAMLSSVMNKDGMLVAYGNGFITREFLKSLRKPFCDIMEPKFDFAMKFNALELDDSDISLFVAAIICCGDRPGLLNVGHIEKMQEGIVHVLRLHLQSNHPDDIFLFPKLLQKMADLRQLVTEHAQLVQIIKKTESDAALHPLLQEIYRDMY
- ASSAY_NOTES: Binding affinity to human PPAR alpha
# IC50 annotations
MEASURE: IC50 (nM)

COMPOUND: CCC1(CC)C=C(C(F)(F)F)c2cc(Cl)c(OCCCOc3ccc(O[C@](C)(CC)C(=O)O)cc3)cc2O1
UNITS_LABEL: nM
OBS_VALUE: 125
--
COMPOUND: O=C(O)C(Cc1ccc(OCCCOc2ccc(Oc3ccc(F)cc3)cc2Cl)cc1)c1ccccc1 (centres undefined)
UNITS_LABEL: nM
OBS_VALUE: 262
--
COMPOUND: CCCC(Cc1ccc(OCCCOc2ccc(Oc3ccc(F)cc3)cc2Cl)cc1)C(=O)O (centres undefined)
UNITS_LABEL: nM
OBS_VALUE: 130
--
COMPOUND: CCC(C)(Oc1ccc(OCCCOc2ccc(Oc3ccc(F)cc3)cc2Cl)cc1)C(=O)O (centres undefined)
UNITS_LABEL: nM
OBS_VALUE: 5
--
COMPOUND: CC[C@@](C)(Cc1ccc(OCCCOc2ccc3c(C(F)(F)F)cc(=O)oc3c2C)cc1)C(=O)O
UNITS_LABEL: nM
OBS_VALUE: 49
--
COMPOUND: CC(C)(Oc1ccc(OCCCOc2ccc(Oc3ccc(F)cc3)cc2Cl)cc1)C(=O)O
UNITS_LABEL: nM
OBS_VALUE: 30
--
COMPOUND: O=C(O)C(Cc1ccc(OCCCOc2ccc(Oc3ccc(F)cc3)cc2Cl)cc1)C1CCC1 (centres undefined)
UNITS_LABEL: nM
OBS_VALUE: 116
--
COMPOUND: CC[C@@](C)(Oc1ccc(OCCCOc2ccc(Oc3ccc(F)cc3)cc2Cl)cc1)C(=O)O
UNITS_LABEL: nM
OBS_VALUE: 101
--
COMPOUND: CC[C@@](C)(Cc1ccc(OCCCOc2ccc3c(C)cc(O)nc3c2)cc1)C(=O)O
UNITS_LABEL: nM
OBS_VALUE: 6090
